Experiment: Phase 1 FIH study: plasma pharmacokinetics in healthy participants
Type: in vivo, human
Conditions: human, plasma, oral, Part 2 MRD, 40/20 mg, up to 168 h post-dose; read-out: Mean Cmax (SD)
metric_name: Cmax (ng/mL)
State the answer as a number, implicitly in ng/mL.

Query: Cmax; subject: C[C@H](NC(=O)Cn1nnc2ccccc2c1=O)c1ccc(OC(F)(F)F)cc1
Reply: 550

###

Assay: Phase 1 FIH study: plasma pharmacokinetics in healthy participants
Format: in vivo, human
Details: human, plasma, po, healthy, oral, 40/20 mg, Day 22, N 6; read-out: Vz/F (mean)
metric_name: Vd/F (L)
Write it as a number; the unit L goes unstated.

Query: # Vd/F lookup, item C[C@H](NC(=O)Cn1nnc2ccccc2c1=O)c1ccc(OC(F)(F)F)cc1
Reply: 112

###

Assay: Phase 1 FIH study: plasma pharmacokinetics in healthy participants
Type: in vivo, human
Conditions: human, plasma, po, 120 mg, Part 1 SRD, Cohort 4, 120 mg oral suspension, fasted, up to 168 h post-dose; read-out: Mean Cmax (SD)
Method: Part 1 was a double-blind, SRD study in healthy adults, utilizing an alternate panel design (cohorts 1, 2) and sequential panel design (cohorts 3-5). […] Although planned, all subsequent doses after the dose of 80 mg were determined based on emerging safety, tolerability, and PK data from the preceding cohorts. […] Pharmacokinetic parameters were determined from the concentration-time profiles for all evaluable participants. […]
metric_name: Cmax (ng/mL)
Just the number please, in ng/mL, no unit attached.

Query: May I ask what Cmax has been recorded for C[C@H](NC(=O)Cn1nnc2ccccc2c1=O)c1ccc(OC(F)(F)F)cc1 ?
Reply: 1200

###

Assay: Phase 1 FIH study: plasma pharmacokinetics in healthy participants
Assay type: in vivo, human
Conditions: human, plasma, po, 10 mg, Part 1 SRD, Cohort 2, 10 mg oral suspension, fasted, up to 96 h post-dose; read-out: Mean Cmax (SD)
metric_name: Cmax (ng/mL)
Output spec: scalar in ng/mL, unitless text.

Query: Quick check: Cmax of C[C@H](NC(=O)Cn1nnc2ccccc2c1=O)c1ccc(OC(F)(F)F)cc1 ?
Reply: 193

###

Assay: Phase 1 FIH study: plasma pharmacokinetics in healthy participants
Type: in vivo, human
Conditions: human, plasma, po, healthy, oral, 40/20 mg, Day 22, N 6; read-out: AUC24 (mean)
metric_name: AUC (ng·h/mL)
Please reply with the bare figure in ng·h/mL and do not write the unit itself.

Query: Which AUC is reported for this compound? C[C@H](NC(=O)Cn1nnc2ccccc2c1=O)c1ccc(OC(F)(F)F)cc1
Reply: 12000

###

Test: Phase 1 FIH study: plasma pharmacokinetics in healthy participants
Format: in vivo, human
Settings: human, plasma, po, healthy, oral, 40/20 mg, Day 22, N 6; read-out: AUC96 (mean)
metric_name: AUC (ng·h/mL)
I only need the number, in ng·h/mL, no unit after it.

Query: State the recorded AUC for this entry: C[C@H](NC(=O)Cn1nnc2ccccc2c1=O)c1ccc(OC(F)(F)F)cc1
Reply: 42200

###

Experiment: Phase 2 crossover study: plasma pharmacokinetics in schizophrenia subjects
Assay type: in vivo, human
Conditions: human, plasma; single oral dose 40 mg, schizophrenia subjects
Description: On Day 1 of each treatment period, following study drug administration, and commencing at approximately 2 h post-dose, subjects underwent PD tests for a total of approximately 4 h. […] The following domains of cognitive function found to be consistently impaired in schizophrenia were assessed in this study: verbal memory; working memory; motor function; attention and processing speed; verbal fluency; and executive function. […]
metric_name: Cmax (ng/mL)
Field format: number, assumed ng/mL, no unit text.

Query: Given the entry C[C@H](NC(=O)Cn1nnc2ccccc2c1=O)c1ccc(OC(F)(F)F)cc1 [Compound (I)] , report its measured Cmax.
Reply: 549
